B1: Ribonuclease HI, P0A7Y4 (parent)
chain: MLKQVEIFTDGSCLGNPGPGGYGAILRYRGREKTFSAGYTRTTNNRMELMAAIVALEALKEHCEVILSTDSQYVRQGITQWIHNWKKRGWKTADKKPVKNVDLWQRLDAALGQHQIKWEWVKGHAGHPENERCDELARAAAMNPTLEDTGYQVEV

# Variants of: B1
# Reported Conditions: Escherichia coli (strain K12); pH 3; 50.1 °C; Thermal; CD; glycine-HCl 10 mM; NaCl 0.1 M; reversible: yes; structure 2RN2; whole UniProt chain shown
Assay Readout: ddG of mutation (higher = less stable) (kcal/mol)
The answer is to be given in kcal/mol; state only the numeric part.

// below: answered variants
Mutant Name	ddG of mutation (higher = less stable) / kcal/mol
E119V	-0.09
E119V R41C	-0.09
H62D	-0.67

Recorded ddG of mutation (higher = less stable) (variant K117R ): 0.06

The measured ddG of mutation (higher = less stable) associated with H62R reads 0.03
